Hello, the source for this data is patent US20260209334A1, in case you need it.

target: recombinant human IL-17A (produced in HEK cells, Proteintech HZ-1113) (human, UniProt Q16552 24-155); assay: cell-based or functional assay
Sequence (Q16552 24-155 limits assumed): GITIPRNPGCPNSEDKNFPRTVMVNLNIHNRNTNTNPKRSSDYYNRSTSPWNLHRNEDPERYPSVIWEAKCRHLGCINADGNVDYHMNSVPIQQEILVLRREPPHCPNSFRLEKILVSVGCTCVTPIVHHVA
Neutralization potency, ranking from 1 = the best to 4 (HEK-Blue IL-17 reporter cells): recorded values
Kindly provide the numeric value in rank only, without the unit symbol.

Below: 3 binders and their reported Neutralization potency, ranking from 1 = the best to 4 (HEK-Blue IL-17 reporter cells).
| binder | experimental value |
| --- | --- |
| Bm44B11 (VHH, Class A, second generation) VHH: QVQLVESGGGLVQAGGSLNLSCVISRRTPSGYAMGWFRQASGKEREFVAAISWIGGGAVYADSVKGRFTMSRDNAKNTVYLQMNSLKPEDTAVYYCNDMPYGLDTTMDDYDYWGQGTQVTVSS | 3 |
| VHH662 (VHH, Control VHH of Ablynx, disclosed in WO2012156219) VHH: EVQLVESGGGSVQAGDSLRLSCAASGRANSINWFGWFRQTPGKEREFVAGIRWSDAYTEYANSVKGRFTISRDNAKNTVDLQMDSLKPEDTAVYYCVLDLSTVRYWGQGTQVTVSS | 2 |
| Re42B04a (VHH, Class A; Monovalent VHH) VHH: QVQLVESGGGLVQVGGSLRLSCEVSGLPVSSYAMGWFRQAPEKEREFVAAISWIGGDSRYAHFVKGRFTISRDNAKNTVHLQMDSLKPEDTAVYYCNDMPYGLDTRMDEYEYWGQGTQVTVSS | 1 |

Then this binder:
Neutralization potency, ranking from 1 = the best to 4 (HEK-Blue IL-17 reporter cells) reading for Bm44C09 (VHH, Class A, second generation) VHH: QVQLVESGGGLVQAGGSLRLSCAASGLAVSSYAMGWFRQAPGKEREFVAAISWISGGTKYADSVKDRFTMSRDNAKKQVYLEMNSLKPEDTAVYYCNDMPYGLDTRMDDYKYWGQGIQVTVSS : 4
